Inh. of Maltase: recorded values
System: Maltase
test-name: Inhibition of maltase (α-glycosidase, maltose-cleaving activity)
Format: biochemical, rabbit
condition-summary: at 100 µM (Table 1 head)
Structures can show the parent of a compound that is named as a salt.
Reply with just the number (in %).

// known answers, use as guide
compound="COC1CN(CCCOc2ccc(F)cc2)CCC1N1C(CO)[C@@H](O)[C@H](O)[C@H]1CO (stereo partly drawn) [Compound 22]" quantity_measured="Inh. of Maltase" recorded_number=0
compound="OC[C@H]1[C@@H](O)[C@H](O)[C@H](CO)N1c1ccc(F)cc1 [Compound 11]" quantity_measured="Inh. of Maltase" recorded_number=19
compound="CCOC(=O)N1CCC(N2C(CO)[C@@H](O)[C@H](O)C2CO)CC1 (stereo partly drawn) [Compound 13]" quantity_measured="Inh. of Maltase" recorded_number=0
compound="OCCCN1C(CO)[C@@H](O)[C@H](O)C1CO (stereo partly drawn) [Compound 15]" quantity_measured="Inh. of Maltase" recorded_number=0

Fill in: Inh. of Maltase of OC[C@@H]1[C@@H](O)[C@H](O)[C@H](CO)N1CCCC(c1ccc(F)cc1)c1ccc(F)cc1 [Compound 12, tosylate] is ___ 20

What about this compound? OCC1[C@@H](O)[C@H](O)C(CO)N1CCCOc1ccc(F)cc1 (stereo partly drawn) [Compound 8] 0

Note, next up: OC[C@@H]1[C@@H](O)[C@H](O)[C@@H](CO)N1C(c1ccccc1)c1ccccc1 [Compound 3] 0

And then OC[C@@H]1[C@@H](O)[C@H](O)[C@H](CO)N1c1ccc(F)cc1 [Compound 9] , what is it? 0

Another compound to look at: OC[C@@H]1[C@@H](O)[C@H](O)[C@@H](CO)N1c1ccc(F)cc1 [Compound 10] 0

====

Form field: Inh. of Maltase (one value per entry).
Tested on: Maltase
test-name: Inhibition of maltase (α-glycosidase, maltose-cleaving activity)
Assay type: biochemical, rabbit
condition-summary: at 100 µM (Table 1 head)
Give the quantity in %, number only.

Examples from the recorded data:
compound="OC[C@@H]1N[C@H](CO)[C@@H](O)[C@@H]1O [Compound 2, 2,5-Anhydro-2,5-imino-D-glucitol]" recorded_number=0
compound="CCCCN1[C@H](CO)[C@@H](O)[C@H](O)[C@@H]1CO [Compound 16]" recorded_number=0

Quick one: Inh. of Maltase for OC[C@@H]1[C@@H](O)[C@H](O)[C@H](CO)N1C(c1ccccc1)c1ccccc1 [Compound 1] ? 0

====

Test system: glycosidase
test-name: Glycosidase inhibition, overall statement
Assay type: biochemical
Structures can show the parent of a compound that is named as a salt.
quantity-measured: glycosidase inhibition (in words)

compound=OC[C@@H]1[C@@H](O)[C@H](O)[C@H](CO)N1C(c1ccccc1)c1ccccc1 quantity_measured="glycosidase inhibition (in words)" result="glycosidase inhibitors"
compound="OC[C@@H]1[C@@H](O)[C@H](O)[C@H](CO)N1CCCC(c1ccc(F)cc1)c1ccc(F)cc1 [Compound 12, tosylate]" quantity_measured="glycosidase inhibition (in words)" result="glycosidase inhibitors"
compound=OC[C@H]1[C@@H](O)[C@H](O)[C@H](CO)N1c1ccc(F)cc1 quantity_measured="glycosidase inhibition (in words)" result="glycosidase inhibitors"
compound="OC[C@@H]1N[C@H](CO)[C@@H](O)[C@@H]1O [Compound 2, 2,5-Anhydro-2,5-imino-D-glucitol]" quantity_measured="glycosidase inhibition (in words)" result="glycosidase inhibitors"

====

Tested on: HIV-1
test-name: Anti-HIV-1 activity in MT-4 cells
Type: cell-based
condition-summary: Table 1; MT-4 cells, viable cells after five days
quantity-measured: HIV1/HIV2 Act. (HIV1)

The following molecules have reported results that may help.
molecule=OC[C@@H]1[C@@H](O)[C@H](O)[C@@H](CO)N1C(c1ccccc1)c1ccccc1 result="No anti-HIV1 act."
molecule="OCC1[C@@H](O)[C@H](O)C(CO)N1CCCOc1ccc(F)cc1 (stereo partly shown)" result="No anti-HIV1 act."
molecule="OC[C@@H]1N[C@H](CO)[C@@H](O)[C@@H]1O [Compound 2, 2,5-Anhydro-2,5-imino-D-glucitol]" result="No anti-HIV1 act."
molecule="OCC1[C@@H](O)[C@H](O)C(CO)N1CCc1ccc(F)cc1 (stereo partly shown)" result="No anti-HIV1 act."
molecule=OC[C@H]1[C@@H](O)[C@H](O)[C@H](CO)N1c1ccc(F)cc1 result="No anti-HIV1 act."

Now turn to the next molecule.
Requested read-out HIV1/HIV2 Act. (HIV1), target or system HIV-1, entry COC1CN(CCCOc2ccc(F)cc2)CCC1N1C(CO)[C@@H](O)[C@H](O)[C@H]1CO (stereo partly shown) No anti-HIV1 act.

====

Test system: HIV-1
test-name: Anti-HIV-1 activity in MT-4 cells
Format: cell-based
condition-summary: Table 1; MT-4 cells, viable cells after five days
quantity-measured: HIV1/HIV2 Act. (HIV1)

compound="OC[C@@H]1[C@@H](O)[C@H](O)[C@H](CO)N1c1ccc(F)cc1 [Compound 9]" result="No anti-HIV1 act."
compound="OC[C@@H]1[C@@H](O)[C@H](O)[C@@H](CO)N1c1ccc(F)cc1 [Compound 10]" result="No anti-HIV1 act."
compound="CCOC(=O)N1CCC(N2C(CO)[C@@H](O)[C@H](O)C2CO)CC1 (stereo partly shown) [Compound 13]" result="No anti-HIV1 act."
